B1: glmS ribozyme (parent)
chain: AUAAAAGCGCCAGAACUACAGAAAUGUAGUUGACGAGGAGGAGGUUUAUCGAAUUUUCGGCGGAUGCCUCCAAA

- Variants of: B1
- Assay details: self-cleavage kobs at 2500 uM GlcN6P; higher = faster cleavage; RNA array
- Cond: with glucosamine-6-phosphate
Fewer inactive variants are shown than the library holds.
Rule: self-cleavage kobs at 2500 uM GlcN6P of 0.0002 s⁻¹ or more gives satisfied; anything lower gives not satisfied.

Recorded results for 5 variants are shown here.
1. AUAAAAACGCCAGAACUACAGAAAUGUAGUCGACGAGGGGGAGGUUUAUCGUAUUUUCGGCGGAUGCCUCCAAA [G7A U31C A39G A52U] :: not satisfied
2. AUAAAAGCACCAGAAGUACAGAAAUGUAGUUGACGAGGAGGAGGUUUAUCGAAUUUUCGGCGGAUGCCUCCAAA [G9A C16G] :: not satisfied
3. AUAAAAGCGCCAGAACUACAGAAAUGUAGUUGACGAAGAGGAGGUUUAUCGAUUGUUCGGCGGAUGCCUCCAAA [G37A A53U U55G] :: satisfied
4. AUAAAAGGGCCAGAACUACAGAAAUGUAGUUGACGAGGAGGAGGUGUUUCGAAUGUUCGGCGGAUUCCUUCAAA [C8G U46G A48U U55G G66U C70U] :: not satisfied
5. AUAAAAGCGCCAGAACUACAGAAAUGUAGUUGAUGAGGAGGAGGUUUAUCGAAUUUUCGGCGGAUGCCGCCAAA [C34U U69G] :: satisfied

QUERY: Check if self-cleavage kobs at 2500 uM GlcN6P >= 0.0002 s⁻¹ (inclusive). Item: AUAAAAGCGCCAGAACUACAGAAAUGUAAAUGACGAGGAGGAGGUUUAUCGAAUUUUCGGCGGAUGCCUCCAAA [G29A U30A]
RESULT: satisfied

QUERY: Check if self-cleavage kobs at 2500 uM GlcN6P >= 0.0002 s⁻¹ (inclusive). Item: AUAAAAGCGCCAGAACUACAGAAAUGUAUUUGACGAGGAGGAGGUUUAUCGGAUUUUCGGCGGAUGCCUCCAAA [G29U A52G]
RESULT: not satisfied

QUERY: Check if self-cleavage kobs at 2500 uM GlcN6P >= 0.0002 s⁻¹ (inclusive). Item: AUAAAAGCACCAGAACUACAGAAAUGUAGUUGACGAGGAGGAGGUUUAUCGAAUUUUCGGCGGAUGAGUCCAAA [G9A C67A C68G]
RESULT: not satisfied

QUERY: Check if self-cleavage kobs at 2500 uM GlcN6P >= 0.0002 s⁻¹ (inclusive). Item: AUAAAAGCGCCAAAAUUACAGAAAUGUAGUUGACGAGGAGGAGGUUUAUCGAAUUUUCGGCGGAUGCCUCCAAA [G13A C16U]
RESULT: satisfied

QUERY: Check if self-cleavage kobs at 2500 uM GlcN6P >= 0.0002 s⁻¹ (inclusive). Item: AUAAAACCGCCAAAACUACAGAAAUGUAGUUGACGAGGAGGAGGUUUAUCGUAUUUUCGGCGGAUCCCUCCAAA [G7C G13A A52U G66C]
RESULT: not satisfied

QUERY: Check if self-cleavage kobs at 2500 uM GlcN6P >= 0.0002 s⁻¹ (inclusive). Item: AUAAAAGAGCCAGAACUACAGAAAUGUAGUUGACGAGGAGAAGGUUUAUCGAAUUUUCGGCGGACGCCUCCAAA [C8A G41A U65C]
RESULT: not satisfied

QUERY: Check if self-cleavage kobs at 2500 uM GlcN6P >= 0.0002 s⁻¹ (inclusive). Item: AUAAAAGAGCCAUAACUACAGAAAUGUAGUUGACGAGGAGGAGGUUUAUCGAAUUUUCGGCGGAUGCCUCCAAA [C8A G13U]
RESULT: not satisfied

QUERY: Check if self-cleavage kobs at 2500 uM GlcN6P >= 0.0002 s⁻¹ (inclusive). Item: AUAAAAGCGCCAGAACUACAGAAAUGUAGUUGACGAGGUGGAGGUUUAUCGAAUUUUCGGCGGAUGCUUCCAAA [A39U C68U]
RESULT: satisfied

QUERY: Check if self-cleavage kobs at 2500 uM GlcN6P >= 0.0002 s⁻¹ (inclusive). Item: AUAAAAGCGCCAGAACUACAGAAAUGUAUUUGACGAGGAGGAGGUUUAUCGAAUUUUCGGCGGAUGCCGCCAAA [G29U U69G]
RESULT: not satisfied

QUERY: Check if self-cleavage kobs at 2500 uM GlcN6P >= 0.0002 s⁻¹ (inclusive). Item: AUAAAAGCGCCAGAACUACAGAAAUGUAGUUGACGAGGAGGAGGUUUAUCGAAUUUUAGGCGGAUGCCCCCAAA [C58A U69C]
RESULT: not satisfied

QUERY: Check if self-cleavage kobs at 2500 uM GlcN6P >= 0.0002 s⁻¹ (inclusive). Item: AUAAAAGCGCCAGAACUACAGAAAUGUAUUUGACGAGGAGGAGGUUUAUCGAAUUUACGGCGGAUGCGUCCAAA [G29U U57A C68G]
RESULT: not satisfied

QUERY: Check if self-cleavage kobs at 2500 uM GlcN6P >= 0.0002 s⁻¹ (inclusive). Item: AUAAAAGCGCCAGGACUACAGACAUGUAGUUGACGAGGAGGAGGUUUAUCGAAUUUUCGGCGGUUGCCUCCAAA [A14G A23C A64U]
RESULT: not satisfied

QUERY: Check if self-cleavage kobs at 2500 uM GlcN6P >= 0.0002 s⁻¹ (inclusive). Item: AUAAAAGCGCCAGAACUACAGAAAUGUAGUUGACGAGGAGUAGGUUUAUGGAAUUUCUGGCGGAUGCCUUCAAA [G41U C50G U57C C58U C70U]
RESULT: not satisfied

QUERY: Check if self-cleavage kobs at 2500 uM GlcN6P >= 0.0002 s⁻¹ (inclusive). Item: AUAAAAGCGCAAGAACUACAGAAAUGUAGCUGACGAGGAGGAGGUUUAUCGAAUUUUCGGCAGAUGCCUCCAAA [C11A U30C G62A]
RESULT: not satisfied

QUERY: Check if self-cleavage kobs at 2500 uM GlcN6P >= 0.0002 s⁻¹ (inclusive). Item: AUAAAGGCGCCAGACCUACAGAAAUGUAGUUGACGAGGAGGAGGAUUAUCGAAUUUUCAGCGGAUGCCUCCAAA [A6G A15C U45A G59A]
RESULT: not satisfied

QUERY: Check if self-cleavage kobs at 2500 uM GlcN6P >= 0.0002 s⁻¹ (inclusive). Item: AUAAAAGCGCCAGAACUACAGAAAUGUAGUUGACGAGGUGAAGGUUUAUCGAAUUUUCGGCUGAUGCCUCCAAA [A39U G41A G62U]
RESULT: not satisfied

QUERY: Check if self-cleavage kobs at 2500 uM GlcN6P >= 0.0002 s⁻¹ (inclusive). Item: AUAAAAGCGCCAGAACUACAGAAAUGUAGUUGACGAGGAGGAGGUUUAUCGAGUUUUAGGCGGAUGCGUCCAAA [A53G C58A C68G]
RESULT: not satisfied

QUERY: Check if self-cleavage kobs at 2500 uM GlcN6P >= 0.0002 s⁻¹ (inclusive). Item: AUAAAAGCGCCAGGACUACAGAAAUGUAGUUGACGAGGAGGAGGUUUAUCGAAUGUUCGGCGGAUGCAUCCAAA [A14G U55G C68A]
RESULT: satisfied

QUERY: Check if self-cleavage kobs at 2500 uM GlcN6P >= 0.0002 s⁻¹ (inclusive). Item: AUAAAAGCGCCAGAACUACAGAAAUGUAGUUGACGAGGAGGAGGUUUAUCGAAUUUUCGUCGGAAGCCUCCAAA [G60U U65A]
RESULT: not satisfied

QUERY: Check if self-cleavage kobs at 2500 uM GlcN6P >= 0.0002 s⁻¹ (inclusive). Item: AUAAAAGCGCCAGAACUACAGAAAUGUAGUUGCCGAGGAGGAGGUUUAUCGAAGUUUCGGCGGAUGCCUCCAAA [A33C U54G]
RESULT: satisfied
